# TARGET: UniProtKB P35372
# ASSAY SUMMARY: Antagonist activity test using [35S]-GTPγS bond as index using human μ-opioid receptor-expressing cell membrane
# Assay type: biochemical
# ASSAY SETUP: inhibition of DAMGO (10 nM)-stimulated [35S]-GTPγS binding, human μ-opioid receptor membrane; read-out: IC50
QUANTITY KIND: pIC50
Quick note: pIC50 means taking -log10 of the concentration in moles per liter.

Answer with the recorded pIC50 for the compound listed here: CC[C@]1(c2cccc(NS(C)(=O)=O)c2)[C@@H]2CN(CC3(O)Cc4ccccc4C3)C[C@@H]21.CS(=O)(=O)O [Comparative compound 1, reference compound]
8.89
